Catalogue of pEC50 values
Target: T1, cyno PMEL17 (cyno, UniProt A0A2K5WWN0 25-668)
T1 construct: whole, on cells; also called HKB11-cyno; HKB11-cyno-PMEL17
T1 sequence: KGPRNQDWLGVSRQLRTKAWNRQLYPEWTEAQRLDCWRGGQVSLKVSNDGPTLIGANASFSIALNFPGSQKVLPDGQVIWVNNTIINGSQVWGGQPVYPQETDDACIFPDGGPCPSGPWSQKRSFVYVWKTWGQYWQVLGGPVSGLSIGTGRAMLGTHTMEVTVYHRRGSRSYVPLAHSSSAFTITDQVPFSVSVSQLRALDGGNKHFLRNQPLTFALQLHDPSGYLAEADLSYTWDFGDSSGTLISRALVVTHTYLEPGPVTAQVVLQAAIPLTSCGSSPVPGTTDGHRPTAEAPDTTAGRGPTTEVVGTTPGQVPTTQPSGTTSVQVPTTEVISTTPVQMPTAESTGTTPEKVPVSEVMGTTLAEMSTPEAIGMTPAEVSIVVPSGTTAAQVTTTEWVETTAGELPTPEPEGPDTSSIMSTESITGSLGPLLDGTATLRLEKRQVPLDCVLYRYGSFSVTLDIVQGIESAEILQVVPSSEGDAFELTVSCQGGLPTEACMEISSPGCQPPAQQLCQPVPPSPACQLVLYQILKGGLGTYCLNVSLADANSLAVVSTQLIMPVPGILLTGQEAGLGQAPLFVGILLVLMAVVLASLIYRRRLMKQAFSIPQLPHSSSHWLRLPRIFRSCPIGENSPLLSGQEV
Experiment: FACS titration of IgG on HKB11-cyno-PMEL17 cells, Alexa Fluor detection antibody
To interpret pEC50, take it as minus log10 of a concentration measured in moles per litre.

Examples from the recorded data:
{"binder": "MOR024353 (antibody, V domains shown, Tested as purified human IgG) VH: QVQLVQSGAEVKKPGSSVKVSCKASGGTFSDYAISWVRQAPGQGLEWMGGIIPIFGDANYAQKFQGRVTITADESTSTAYMELSSLRSEDTAVYYCAREGSSYFYMAYWGQGTLVTVSS VL: SYELTQPLSVSVALGQTARITCSGDNIGSKLASWYQQKPGQAPVLVIYDDSNRPSGIPERFSGSNSGNTATLTISRAQAGDEADYYCAATAGDRWAYVFGGGTKLTVL", "value observed": 8.80}
{"binder": "Y010903 (antibody, V domains shown, Tested as purified human IgG) VH: EVQLVESGGGLVKPGGSLRLSCAASGFTFSNAWMSWVRQAPGKGLEWVGRIKSKTDAGTTDYAAPVKGRFTISRDDSKNTLYLQMNSLKTEDTAVYYCARASHRLHSLFDVWGQGTLVTVSS VL: DIQMTQSPSTLSASVGDRVTITCRASQSISSWLAWYQQKPGKAPKLLIYDASSLESGVPSRFSGSGSGTEFTLTISSLQPEDFATYYCQQGLFYPHTFGQGTKVEIK", "value observed": 8.70}
{"binder": "Y010356 (antibody, V domains shown, Tested as purified human IgG) VH: EVQLVESGGGLVKPGGSLRLSCAASGFTFSNYWISWVRQAPGKGLEWVGRIKSKTYGGTTDYAEPVKGRFTISRDDSKNTLYLQMNSLKTEDTAVYYCARVSGYYSHSGGFDVWGQGTLVTVSS VL: DIQMTQSPSSLSASVGDRVTITCRASQGISNYLAWYQQKPGKVPKLLIYAASTLQSGVPSRFSGSGSGTDFTLTISSLQPEDVATYYCQKTWRTPGTFGQGTKVEIK", "value observed": 8.35}

Reported pEC50 of Y010906 (antibody, V domains shown, Tested as purified human IgG) VH: EVQLVESGGGLVKPGGSLRLSCAASGFTFSNAWMSWVRQAPGKGLEWVGRIKSKTDAGTTDYAAPVKGRFTISRDDSKNTLYLQMNSLKTEDTAVYYCARDEYPWGWFDVWGQGTLVTVSS VL: DIQMTQSPSSVSASVGDRVTITCRASQGISSWLAWYQQKPGKAPKLLIYAASSLQSGVPSRFSGSGSGTDFTLTISSLQPEDFATYYCQQYIFYPLTFGQGTKVEIK : 8.70

Data origin: patent US20240189439A1
